Taken from ChEMBL document CHEMBL1150722.

Provide the reported inhibition of each item.
- test-system: UniProt:P47820
- assay-notes: Inhibition of rat lung ACE at 38 ug/ml relative to control
Be sure to follow the number with its unit.

Some molecules with known inhibition results, for comparison:
O=c1c(O[C@@H]2O[C@H](CO)[C@@H](O)[C@H](O)[C@H]2O)c(-c2ccc(O)c(O)c2)oc2cc(O)cc(O)c12 0%
O=C(O[C@H]1[C@H](Oc2c(-c3ccc(O)cc3)oc3cc(O)cc(O)c3c2=O)O[C@H](CO)[C@@H](O)[C@@H]1O)c1cc(O)c(O)c(O)c1 3%
O=c1c(O[C@@H]2O[C@H](CO)[C@@H](O)[C@H](O)[C@H]2O)c(-c2ccc(O)cc2)oc2cc(O)cc(O)c12 0%

Problem: Look up inhibition with UniProt:P47820 for this molecule: O=C(O[C@H]1[C@H](Oc2c(-c3ccc(O)c(O)c3)oc3cc(O)cc(O)c3c2=O)O[C@H](CO)[C@@H](O)[C@@H]1O)c1cc(O)c(O)c(O)c1
Solution: 10%

---

- test-system: Angiotensin-converting enzyme (Rattus norvegicus) (UniProt P47820)
- Sequence (whole entry): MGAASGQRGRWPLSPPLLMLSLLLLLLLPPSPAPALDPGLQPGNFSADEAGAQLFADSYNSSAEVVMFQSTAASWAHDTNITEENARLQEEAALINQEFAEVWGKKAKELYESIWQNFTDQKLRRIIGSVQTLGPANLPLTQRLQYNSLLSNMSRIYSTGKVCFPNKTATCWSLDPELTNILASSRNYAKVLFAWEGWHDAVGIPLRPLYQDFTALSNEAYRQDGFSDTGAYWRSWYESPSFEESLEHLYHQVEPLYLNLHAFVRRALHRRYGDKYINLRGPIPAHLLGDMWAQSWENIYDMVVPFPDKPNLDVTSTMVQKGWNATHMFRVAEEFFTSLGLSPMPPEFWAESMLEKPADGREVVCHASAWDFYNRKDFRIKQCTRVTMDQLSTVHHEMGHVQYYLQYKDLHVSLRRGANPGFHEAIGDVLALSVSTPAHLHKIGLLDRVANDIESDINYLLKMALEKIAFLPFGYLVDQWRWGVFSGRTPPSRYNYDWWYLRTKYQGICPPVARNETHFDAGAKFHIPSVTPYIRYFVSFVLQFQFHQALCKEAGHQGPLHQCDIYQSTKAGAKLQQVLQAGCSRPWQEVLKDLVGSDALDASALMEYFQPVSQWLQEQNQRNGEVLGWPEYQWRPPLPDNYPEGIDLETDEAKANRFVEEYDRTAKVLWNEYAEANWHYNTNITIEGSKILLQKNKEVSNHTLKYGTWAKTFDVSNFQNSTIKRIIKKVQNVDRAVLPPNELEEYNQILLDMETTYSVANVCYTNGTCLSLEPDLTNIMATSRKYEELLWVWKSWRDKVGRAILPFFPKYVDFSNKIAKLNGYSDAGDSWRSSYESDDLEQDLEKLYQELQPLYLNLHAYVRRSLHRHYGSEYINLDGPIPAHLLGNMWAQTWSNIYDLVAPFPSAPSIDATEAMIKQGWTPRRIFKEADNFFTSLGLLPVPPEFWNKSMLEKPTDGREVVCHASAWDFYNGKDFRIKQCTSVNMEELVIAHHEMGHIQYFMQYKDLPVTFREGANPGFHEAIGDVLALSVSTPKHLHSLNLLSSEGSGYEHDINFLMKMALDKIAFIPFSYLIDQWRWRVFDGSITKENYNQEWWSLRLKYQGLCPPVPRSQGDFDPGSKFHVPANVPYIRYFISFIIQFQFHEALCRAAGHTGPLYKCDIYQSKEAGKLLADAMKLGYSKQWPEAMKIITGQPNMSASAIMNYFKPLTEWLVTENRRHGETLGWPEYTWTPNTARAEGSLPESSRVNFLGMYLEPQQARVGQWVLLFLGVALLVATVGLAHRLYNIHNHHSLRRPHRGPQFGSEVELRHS
- assay-notes: Inhibition of rat lung ACE at 56 ug/ml relative to control
Provide the reported inhibition of each item.
Numbers only, in %.

Some molecules with known inhibition results, for comparison:
molecule	inhibition / %
O=c1c(O[C@@H]2O[C@H](CO)[C@@H](O)[C@H](O)[C@H]2O)c(-c2ccc(O)cc2)oc2cc(O)cc(O)c12 [ASTRAGALIN]	2
O=C(O[C@H]1[C@H](Oc2c(-c3ccc(O)cc3)oc3cc(O)cc(O)c3c2=O)O[C@H](CO)[C@@H](O)[C@@H]1O)c1cc(O)c(O)c(O)c1	6
O=C(O[C@H]1[C@H](Oc2c(-c3ccc(O)c(O)c3)oc3cc(O)cc(O)c3c2=O)O[C@H](CO)[C@@H](O)[C@@H]1O)c1cc(O)c(O)c(O)c1	12

Could you now look at the following molecule, please?
Problem: What measured inhibition goes with O=c1c(O[C@@H]2O[C@H](CO)[C@@H](O)[C@H](O)[C@H]2O)c(-c2ccc(O)c(O)c2)oc2cc(O)cc(O)c12 ?
Solution: 0

---

Provide the reported inhibition of each item.
- test-system: Angiotensin-converting enzyme (Rattus norvegicus)
- assay-notes: Inhibition of rat lung ACE at 113 ug/ml relative to control
One number for each entry, in %.

Some compounds with known inhibition results, for comparison:
compound	inhibition, %
O=c1c(O[C@@H]2O[C@H](CO)[C@@H](O)[C@H](O)[C@H]2O)c(-c2ccc(O)c(O)c2)oc2cc(O)cc(O)c12	3
O=C(O[C@H]1[C@H](Oc2c(-c3ccc(O)c(O)c3)oc3cc(O)cc(O)c3c2=O)O[C@H](CO)[C@@H](O)[C@@H]1O)c1cc(O)c(O)c(O)c1	39
O=C(O[C@H]1[C@H](Oc2c(-c3ccc(O)cc3)oc3cc(O)cc(O)c3c2=O)O[C@H](CO)[C@@H](O)[C@@H]1O)c1cc(O)c(O)c(O)c1	35

Problem: What measured inhibition goes with O=c1c(O[C@@H]2O[C@H](CO)[C@@H](O)[C@H](O)[C@H]2O)c(-c2ccc(O)cc2)oc2cc(O)cc(O)c12 [ASTRAGALIN] ?
Solution: 31

---

Provide the reported inhibition of each item.
- test-system: Angiotensin-converting enzyme (Rattus norvegicus)
- Sequence (whole entry): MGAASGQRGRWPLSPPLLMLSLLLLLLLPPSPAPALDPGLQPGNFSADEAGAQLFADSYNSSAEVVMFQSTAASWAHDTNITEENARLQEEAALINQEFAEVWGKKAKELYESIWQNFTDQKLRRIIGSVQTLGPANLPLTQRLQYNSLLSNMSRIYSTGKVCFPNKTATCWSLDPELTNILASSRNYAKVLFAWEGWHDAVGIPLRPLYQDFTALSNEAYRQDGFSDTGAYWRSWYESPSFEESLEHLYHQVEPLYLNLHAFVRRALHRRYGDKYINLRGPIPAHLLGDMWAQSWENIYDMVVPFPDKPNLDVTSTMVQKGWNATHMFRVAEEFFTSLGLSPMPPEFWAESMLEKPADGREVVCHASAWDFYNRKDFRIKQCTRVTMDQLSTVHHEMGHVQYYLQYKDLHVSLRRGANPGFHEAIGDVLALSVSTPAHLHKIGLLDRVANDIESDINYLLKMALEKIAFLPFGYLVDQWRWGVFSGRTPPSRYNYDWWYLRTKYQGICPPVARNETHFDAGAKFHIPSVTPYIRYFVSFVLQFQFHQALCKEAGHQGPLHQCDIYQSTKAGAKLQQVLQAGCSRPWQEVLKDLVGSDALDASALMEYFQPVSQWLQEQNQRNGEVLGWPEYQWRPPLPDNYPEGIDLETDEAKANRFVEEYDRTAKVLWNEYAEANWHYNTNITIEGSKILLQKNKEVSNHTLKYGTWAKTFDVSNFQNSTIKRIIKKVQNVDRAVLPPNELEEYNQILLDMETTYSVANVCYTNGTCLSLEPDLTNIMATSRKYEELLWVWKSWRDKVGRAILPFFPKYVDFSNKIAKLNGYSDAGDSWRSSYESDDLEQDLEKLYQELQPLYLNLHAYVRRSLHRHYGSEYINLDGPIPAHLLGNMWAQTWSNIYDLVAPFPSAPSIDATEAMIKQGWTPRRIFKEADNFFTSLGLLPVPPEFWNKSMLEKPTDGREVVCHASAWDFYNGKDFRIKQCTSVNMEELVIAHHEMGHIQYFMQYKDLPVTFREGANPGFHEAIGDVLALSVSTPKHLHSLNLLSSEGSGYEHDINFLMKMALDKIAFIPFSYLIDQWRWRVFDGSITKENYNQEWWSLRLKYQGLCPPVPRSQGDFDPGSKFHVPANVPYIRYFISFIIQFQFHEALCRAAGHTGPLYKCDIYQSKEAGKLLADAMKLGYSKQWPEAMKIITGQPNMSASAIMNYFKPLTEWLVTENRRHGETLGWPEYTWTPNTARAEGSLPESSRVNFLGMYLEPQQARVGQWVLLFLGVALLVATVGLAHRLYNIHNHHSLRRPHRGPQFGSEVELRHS
- assay-notes: Inhibition of rat lung ACE at 225 ug/ml relative to control
Numbers only, in %.

O=c1c(O[C@@H]2O[C@H](CO)[C@@H](O)[C@H](O)[C@H]2O)c(-c2ccc(O)cc2)oc2cc(O)cc(O)c12 28
O=C(O[C@H]1[C@H](Oc2c(-c3ccc(O)c(O)c3)oc3cc(O)cc(O)c3c2=O)O[C@H](CO)[C@@H](O)[C@@H]1O)c1cc(O)c(O)c(O)c1 34
O=C(O[C@H]1[C@H](Oc2c(-c3ccc(O)cc3)oc3cc(O)cc(O)c3c2=O)O[C@H](CO)[C@@H](O)[C@@H]1O)c1cc(O)c(O)c(O)c1 39

Could you now look at the following molecule, please?
Problem: Look up inhibition with Angiotensin-converting enzyme (Rattus norvegicus) for this molecule: O=c1c(O[C@@H]2O[C@H](CO)[C@@H](O)[C@H](O)[C@H]2O)c(-c2ccc(O)c(O)c2)oc2cc(O)cc(O)c12
Solution: 19
